Target: single-chain tethered dimer of HIV protease (Human immunodeficiency virus 1)
Assay: biochemical
Assay type: biochemical
Set-up: fused on or other part: A second copy of the same protease unit is joined to the first by a short peptide tether, giving one polypeptide
Details: read-out: K4 HPLC; Table 2e
result-type: Ki

# molecule, result-type, experimental-result
measured = [
    ("C=CCN1C(=O)N(CC=C)C(C(C)C)C(O)C(O)C1C(C)C (stereo not drawn) [Example 16C]", "Ki", "0.01 to 1 µM"),
    ("CC1C(O)C(O)C(C)N(Cc2ccccc2)C(=O)N1Cc1ccccc1 (stereo not drawn) [Example 16G]", "Ki", "> 1 µM"),
    ("CC(C)CC1C(O)C(O)C(CC(C)C)N(Cc2ccccc2)C(=O)N1Cc1ccccc1 (stereo not drawn) [Example 16AD]", "Ki", "< 0.01 µM"),
    ("C=CCN1C(=O)N(CC=C)C(CCc2ccccc2)C(O)C(O)C1CCc1ccccc1 (stereo not drawn) [Example 16B]", "Ki", "> 1 µM"),
    ("C=CCN1C(=O)N(CC=C)C(C)C(O)C(O)C1C (stereo not drawn) [Example 16E]", "Ki", "> 1 µM"),
    ("CCCCN1C(=O)N(CCCC)C(CC(C)C)C(O)C(O)C1CC(C)C (stereo not drawn) [Example 16AE]", "Ki", "0.01 to 1 µM"),
    ("CC(C)C1C(O)C(O)C(C(C)C)N(CC2CC2)C(=O)N1CC1CC1 (stereo not drawn) [Example 16D]", "Ki", "0.01 to 1 µM"),
    ("O=C1N(Cc2ccccc2)C(CCc2ccccc2)C(O)C(O)C(CCc2ccccc2)N1Cc1ccccc1 (stereo not drawn) [Example 16A]", "Ki", "0.01 to 1 µM"),
    ("CCCCCC1C(O)C(O)C(CCCCC)N(Cc2ccccc2)C(=O)N1Cc1ccccc1 (stereo not drawn) [Example 16AH]", "Ki", "0.01 to 1 µM"),
]

====

Molecular target: HIV protease (Human immunodeficiency virus type 1 group M subtype B)
Construct: plasmid containing HIV protease under the control of an inducible T7 promoter; made in house; host or cells: E. coli (inclusion bodies, T7 promoter)
Assay: biochemical
Set-up: species or system HIV-1
Settings: Table 1d, upper part; read-out: Ki
pKi: −log10 of the molar value.
pKi values, listed per item
result-type: pKi

# compound, experimental-result
rows = [
    ("C=CCN1C(=O)N(CC=C)C(Cc2ccccc2)C(OC(C)=O)C(O)C1Cc1ccccc1 (stereo not shown)", "< 6.00"),
    ("C=CCN1C(=O)N(CCCC)C(Cc2ccccc2)C2OS(=O)OC2C1Cc1ccccc1 (stereo not shown)", "> 8.00"),
    ("O=C1N(CC2CC2)C(Cc2ccccc2)C2OC(=S)OC2C(Cc2ccccc2)N1CC1CC1 (stereo not shown)", "6.00 to 8.00"),
    ("O=C1OC2C(OC1=O)C(Cc1ccccc1)N(Cc1ccc3ccccc3c1)C(=O)N(Cc1ccc3ccccc3c1)C2Cc1ccccc1 (stereo not shown)", "> 8.00"),
]

====

Counter-ions that a name gives are not always drawn.

# molecule, melting point
measured = [
    ("N#CN=C1N(Cc2ccc3ccccc3c2)C(Cc2ccccc2)C(O)C(O)C(Cc2ccccc2)N1Cc1ccc2ccccc2c1 (stereo not shown)", "111.1 °C"),
    ("COC(=O)Oc1cccc(CN2C(=O)N(Cc3cccc(OC(=O)OC)c3)C(Cc3ccccc3)C(O)C(O)C2Cc2ccccc2)c1 (stereo not shown)", "146 to 147 °C"),
    ("C=CCN1C(=O)N(Cc2ccccn2)C(Cc2ccccc2)C(O)C(O)C1Cc1ccccc1 (stereo not shown)", "160 to 162 °C"),
    ("O=C1N(Cc2cccc(Cl)c2)C(Cc2ccccc2)C(O)C(O)C(Cc2ccccc2)N1Cc1cccc(Cl)c1 (stereo not shown)", "210.3 °C"),
    ("N=C(N)c1cccc(CN2C(=O)N(Cc3cccc(C(=N)N)c3)C(Cc3ccccc3)C(O)C(O)C2Cc2ccccc2)c1 (stereo not shown) [11A]", "224 to 226 °C"),
    ("CNc1cccc(CN2C(=O)N(Cc3ccc(CO)cc3)C(Cc3ccccc3)C(O)C(O)C2Cc2ccccc2)c1 (stereo not shown) (as salt: HCl) [15M]", "107.6 °C"),
    ("O=C1N(Cc2cccnc2)C(Cc2ccccc2)C(O)C(O)C(Cc2ccccc2)N1Cc1cccc(-c2cc[nH]n2)c1 (stereo not shown) [Example 15BU]", "133 to 136 °C"),
]

====

melting point values, listed per item

# compound, melting point
data = [
    ("CC(C)(C)CCN1C(=O)N(CCC(C)(C)C)C(Cc2ccccc2)C(O)C(O)C1Cc1ccccc1 (stereo not shown)", "242 to 245 °C"),
    ("COC(=O)c1cccc(CN2C(=O)N(Cc3cccc(-c4cc[nH]n4)c3)C(Cc3ccccc3)C(O)C(O)C2Cc2ccccc2)c1 (stereo not shown) [Example 15BP]", "127 to 130 °C"),
    ("OC1C(O)C(Cc2ccccc2)N(Cc2ccccc2)C(=S)N(Cc2ccccc2)C1Cc1ccccc1 (stereo not shown) [Example 27A]", "92 to 94 °C"),
    ("O=C1N(Cc2cccc3ccccc23)C(Cc2ccccc2)C(O)C(O)C(Cc2ccccc2)N1Cc1cccc2ccccc12 (stereo not shown)", "231 to 233 °C"),
    ("O=C1N(Cc2ccoc2)C(Cc2ccccc2)C(O)C(O)C(Cc2ccccc2)N1Cc1ccoc1 (stereo not shown) [Example 15FN]", "152.5 to 153 °C"),
    ("N#CN=C1N(CC2CCCC2)C(Cc2ccccc2)C(O)C(O)C(Cc2ccccc2)N1CC1CCCC1 (stereo not shown)", "99.7 °C"),
    ("N#Cc1cccc(CN2C(=O)N(Cc3cccc(C=O)c3)C(Cc3ccccc3)C(O)C(O)C2Cc2ccccc2)c1 (stereo not shown) [10C]", "189 to 191 °C"),
]

====

pKi values, listed per item
Biological target: single-chain tethered dimer of HIV protease (Human immunodeficiency virus 1, UniProt P04585)
Experiment: biochemical
Assay type: biochemical
Set-up: fused on or other part: A second copy of the same protease unit is joined to the first by a short peptide tether, giving one polypeptide
Settings: Table 2u; HPLC method; read-out: K1 (HPLC)
Excerpt: HIV Protease Inhibition Assay—HPLC Method […] HPLC measurement of product formation: The product (aminobenzoyl-Ala-Thr-His-Gln-Val-Tyr) was separated from substrate on a Pharmacia MonoQ anion exchange column. […] Detection with a Shimadzu model RF535 fluorescence monitor was at 330 nm (excitation) and 430 (emission).
pKi: −log10 of the molar value.

# molecule, pKi
records = [
    ("O=S1(=O)N(Cc2ccccc2)C(Cc2ccccc2)C2OC2C(Cc2ccccc2)N1Cc1ccccc1 (centres unmarked) [31F]", "< 6.00"),
    ("COC(=O)c1ccc(CN2C(Cc3ccc(F)cc3)C(O)C(O)C(Cc3ccc(F)cc3)N(Cc3ccc(C(=O)OC)cc3)S2(=O)=O)cc1 (centres unmarked) [31B]", "6.00 to 8.00"),
    ("O=S1(=O)N(Cc2ccc(CO)cc2)C(Cc2ccc(F)cc2)C(O)C(O)C(Cc2ccc(F)cc2)N1Cc1ccc(CO)cc1 (centres unmarked) [31D]", "> 8.00"),
    ("O=S1(=O)N(Cc2cccc(CO)c2)C(Cc2ccc(F)cc2)C(O)C(O)C(Cc2ccc(F)cc2)N1Cc1cccc(CO)c1 (centres unmarked) [31C]", "> 8.00"),
    ("COC(=O)c1cccc(CN2C(Cc3ccc(F)cc3)C(O)C(O)C(Cc3ccc(F)cc3)N(Cc3cccc(C(=O)OC)c3)S2(=O)=O)c1 (centres unmarked) [31A]", "6.00 to 8.00"),
]

====

Biological target: HIV protease (Human immunodeficiency virus type 1 group M subtype B)
Construct: plasmid containing HIV protease under the control of an inducible T7 promoter; made in house; host or cells: E. coli (inclusion bodies, T7 promoter)
Assay: biochemical
Design: species or system HIV-1
Details: Table 2A; read-out: Ki
pKi: −log10 of the molar value.
pKi values, listed per item
result-type: pKi

# compound, study-system, result-type, experimental-result
measured = [
    ("O=C1N(Cc2ccc(F)cc2)C(Cc2ccccc2)C(O)C(O)C(Cc2ccccc2)N1Cc1ccc(F)cc1 (stereo not shown)", "HIV protease (Human immunodeficiency virus type 1 group M subtype B)", "pKi", "> 8.00"),
    ("CN1C(=O)N(Cc2ccccc2)C(Cc2ccccc2)C(O)C(O)C1Cc1ccccc1 (stereo not shown)", "HIV protease (Human immunodeficiency virus type 1 group M subtype B)", "pKi", "6.00 to 8.00"),
    ("O=C1N(Cc2ccccc2)C(Cc2ccccc2)C(O)C(O)C(Cc2ccccc2)N1CC1CC1 (stereo not shown)", "HIV protease (Human immunodeficiency virus type 1 group M subtype B)", "pKi", "> 8.00"),
    ("CC(C)=CCN1C(=O)N(CC=C(C)C)C(Cc2ccccc2)C(O)C(O)C1Cc1ccccc1 (stereo not shown)", "HIV protease (Human immunodeficiency virus type 1 group M subtype B)", "pKi", "> 8.00"),
]
